- System tested: T1, Pellino 2 FHA (PELI2 residues 15-275) (human, UniProt Q9HAT8 15-275)
- T1 construct: Cloned into pGEX-6P1; also called PELI2 (15–273); N-terminal PELI2 fragment; source: E. coli BL21 (DE3), purified (Glutathione Sepharose, 3C cleavage, gel filtration); not shown: GST, N-terminal, cleaved
- T1 sequence (looked up): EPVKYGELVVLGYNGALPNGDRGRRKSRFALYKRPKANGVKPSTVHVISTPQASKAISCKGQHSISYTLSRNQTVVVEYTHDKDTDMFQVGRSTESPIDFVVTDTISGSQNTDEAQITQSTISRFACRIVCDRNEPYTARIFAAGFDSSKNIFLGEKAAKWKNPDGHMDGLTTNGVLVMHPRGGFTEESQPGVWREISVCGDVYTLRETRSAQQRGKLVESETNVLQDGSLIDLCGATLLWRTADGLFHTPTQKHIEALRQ
- Assay info: ITC; peptide in the syringe (typically 160 μM), protein in the cell (16 μM); 25 mM HEPES pH 7.0, 200 mM NaCl, 1 mM TCEP; single-site binding model
- Setup conditions: both partners purified
Square brackets hold non-standard residues; d marks the D form. pT = C[C@@H](OP(=O)(O)O)[C@H](N)C(=O)O
Answer each item with its documented pKd.
Numbers only, as −log10 of the molar value.

| Binder | pKd |
| --- | --- |
| Ac-AYDLQA[pT]QCFA-NH2 (SMILES CC(=O)N[C@@H](C)C(=O)N[C@@H](Cc1ccc(O)cc1)C(=O)N[C@@H](CC(=O)O)C(=O)N[C@@H](CC(C)C)C(=O)N[C@@H](CCC(N)=O)C(=O)N[C@@H](C)C(=O)N[C@H](C(=O)N[C@@H](CCC(N)=O)C(=O)N[C@@H](CS)C(=O)N[C@@H](Cc1ccccc1)C(=O)N[C@@H](C)C(N)=O)[C@@H](C)OP(=O)(O)O, human MDC1, stretch around T699 with alanine at pT+4; source: synthetic peptide) [MDC1-pT699 phosphopeptide for ITC (AYDLQApTQCFA)] | 5.95 |
| Ac-AYEVLA[pT]QPFC-NH2 (SMILES CC(=O)N[C@@H](C)C(=O)N[C@@H](Cc1ccc(O)cc1)C(=O)N[C@@H](CCC(=O)O)C(=O)N[C@H](C(=O)N[C@@H](CC(C)C)C(=O)N[C@@H](C)C(=O)N[C@H](C(=O)N[C@@H](CCC(N)=O)C(=O)N1CCC[C@H]1C(=O)N[C@@H](Cc1ccccc1)C(=O)N[C@@H](CS)C(N)=O)[C@@H](C)OP(=O)(O)O)C(C)C, two N-terminal residues that are not the MDC1 residues at this place; human MDC1, stretch around T752; Natural stretch with two added N-terminal residues (AY); source: synthetic peptide) [MDC1-pT752 phosphopeptide for ITC (AYEVLApTQPFC)] | 5.97 |
| Ac-AYEDEP[pT]QAFA-NH2 (SMILES CC(=O)N[C@@H](C)C(=O)N[C@@H](Cc1ccc(O)cc1)C(=O)N[C@@H](CCC(=O)O)C(=O)N[C@@H](CC(=O)O)C(=O)N[C@@H](CCC(=O)O)C(=O)N1CCC[C@H]1C(=O)N[C@H](C(=O)N[C@@H](CCC(N)=O)C(=O)N[C@@H](C)C(=O)N[C@@H](Cc1ccccc1)C(=O)N[C@@H](C)C(N)=O)[C@@H](C)OP(=O)(O)O) [MDC1-pT719 phosphopeptide for ITC (AYEDEPpTQAFA)] | 5.91 |
| Ac-AYSSAS[pT]FLYP-NH2 (SMILES CC(=O)N[C@@H](C)C(=O)N[C@@H](Cc1ccc(O)cc1)C(=O)N[C@@H](CO)C(=O)N[C@@H](CO)C(=O)N[C@@H](C)C(=O)N[C@@H](CO)C(=O)N[C@H](C(=O)N[C@@H](Cc1ccccc1)C(=O)N[C@@H](CC(C)C)C(=O)N[C@@H](Cc1ccc(O)cc1)C(=O)N1CCC[C@H]1C(N)=O)[C@@H](C)OP(=O)(O)O, two N-terminal residues as in the other ITC peptides; IRAK1, stretch around T141 with tyrosine at pT+3; also called IRAK-pT141(+3Y); source: synthetic peptide) [IRAK1-pT141(+3Y) phosphopeptide (AYSSASpTFLYP)] | 6.15 |

// below: pKd requested for another binder
The recorded pKd for Ac-AYEDSE[pT]QPFD-NH2 (SMILES CC(=O)N[C@@H](C)C(=O)N[C@@H](Cc1ccc(O)cc1)C(=O)N[C@@H](CCC(=O)O)C(=O)N[C@@H](CC(=O)O)C(=O)N[C@@H](CO)C(=O)N[C@@H](CCC(=O)O)C(=O)N[C@H](C(=O)N[C@@H](CCC(N)=O)C(=O)N1CCC[C@H]1C(=O)N[C@@H](Cc1ccccc1)C(=O)N[C@@H](CC(=O)O)C(N)=O)[C@@H](C)OP(=O)(O)O, two N-terminal residues that are not the MDC1 residues at this place; human MDC1, stretch around T765; Natural stretch with two added N-terminal residues (AY); The crystallisation methods name only 'the MDC1-pT765 phosphopeptide'; also called MDC1-pT765 (Site 4) phosphopeptide; MDC1 p765 peptide; source: synthetic peptide) [MDC1-pT765 phosphopeptide for ITC and crystallisation (AYEDSEpTQPFD)] is 6.43
